Target: T1, canine CD20 (canine, UniProt Q3C2E2 1-297)
T1 chain: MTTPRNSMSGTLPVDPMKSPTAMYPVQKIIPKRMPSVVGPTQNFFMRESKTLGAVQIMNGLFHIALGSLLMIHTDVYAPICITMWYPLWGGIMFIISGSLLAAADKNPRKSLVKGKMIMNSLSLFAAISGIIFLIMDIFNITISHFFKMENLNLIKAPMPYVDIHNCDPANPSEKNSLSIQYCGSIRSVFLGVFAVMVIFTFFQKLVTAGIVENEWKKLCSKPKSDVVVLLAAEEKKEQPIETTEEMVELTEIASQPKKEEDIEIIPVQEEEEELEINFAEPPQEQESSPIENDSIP
Experiment: cell-based or functional assay
Measured CDC EC50 accompanies every entry in the list below.
Just the number in nM, nothing appended.

Consider the worked cases shown below.
PMX073 (antibody, V domains shown) VH: EVQLVESGGDLVKPGGSLRLSCVASGFTFSRYYMNWVRQAPGKGLQWVAFITSGGSSTSYGDAVKGRFTISRDNAKNTLYLQMNSLRAEDTAVYYCTSFDYWGQGTLVTVSS VL: SYVLTQLPSKNVTLKQPAHITCGGDNIGSKSVHWYQQKLGQAPVLIIYYASSRPTGIPERFSGANSGNTATLTISGALAEDEADYYCQVWDSSANVFGGGTHLTVL :: 11.1
PMX079 (antibody, V domains shown) VH: EVQLVESGGDLVKPGGSLRLSCVASGLTFSRYHMSWVRQAPGKGLQWVAFINSGRSDTTYADAVKGRFTISRDNAKNTLYLQMNSLRAEDTAVYYCTTFDYWGQGTLVTVSS VL: SYVLTQLPSKNVTLKQPAHITCGGDNIGSKSVHWYQQKLGQAPALIIYYDSSRPTGIPERFSGANSGNTATLTISGALAEDEADYYCQVWDSSANVFGGGTHLTVL :: 16.4
PMX077 (antibody, V domains shown) VH: EVQLVESGGDLVKPGGSLRLSCVASGITFSRYYMNWVRQAPGKGLQWVAYINSGGSPTTYADAVKGRFTISRDNAKNTLYLQMNSLRAEDTAVYYCTSFDYWGQGTLVTVSS VL: SYVLTQLPSKNVTLKQPAHITCGGDNIGSKSVHWYQQKLGQAPILIIYYDTSRPTGIPERFSGANSGNTATLTISGALAEDEADYYCQVWDSSANVFGGGTHLTVL :: 9.84

Prompt: What CDC EC50 value was documented for this binder, PMX070 (antibody, V domains shown) VH: EMQLVESGGDLVKPGGSLRLSCVASGFTFSRYHMSWVRQAPGKGLQWVAYINSGGSPTNYADAVKGRFTISRDNAKNTLYLQMNSLRAEDTAVYYCTTYDQWGQGTLVTVSS VL: SYVLTQLPSKSVTLKQPAHITCGGDNIGSKSVHWYQQKLGQAPVLIIYYDSSRPTGIPERFSGANSGNTATLTISGALAEDEADYYCQVWDTSANVFGGGTHLTVL ?
Response: 11.2

Prompt: Try PMX072 (antibody, V domains shown) VH: EVQLVESGGDLVKPGGSLRLSCVASGFTFSRYHMSWVRQAPGKGLQWVAFINTGRSSTNYADAVAGRFTISRDNAKNTLYLQMNSLRAEDTAVYYCSTLDYWGQGTLVTVSS VL: SYVLTQLPSKNVTLKQPAHITCGGDNIGSKSVHWYQQKLGQAPVLIIYYDSSRPTGIPERFSGANSGNTATLTISGALAEDEADYYCQVWDSSANVFGGGTHLTVL next.
Response: 19.6
